Values compiled from patent US20260216134A1.

Overview of reported IC50 at 7 h across a group of compounds:
assay: Clonogenic assay cytotoxicity in A375 cells without light; assay type: cell-based, human; details: human
Express it in nM; write the number only.

Some entries whose results are on file:
In: Any idea what IC50 at 7 h was measured for COC(=O)C(/C=C/C=C1/N(C)c2ccc3ccccc3c2C1(C)C)=C(C)\C=C\C1=[N+](CCCCCCN(C)C)c2ccc3ccccc3c2C1(C)C ?
Out: 450

In: Any idea what IC50 at 7 h was measured for CN(C)CC[N+]1=C(/C=C/C2=CC(=C/C=C3/N(C)c4ccc5ccccc5c4C3(C)C)/CCC2)C(C)(C)c2c1ccc1ccccc21.[I-] ?
Out: 220

Now take the following compound into account.
In: Any idea what IC50 at 7 h was measured for COC(=O)CCCCCN1/C(=C/C=C2C=C(/C=C/C3=[N+](CCCCCC(=O)OC)c4ccc5ccccc5c4C3(C)C)CCC/2)C(C)(C)c2c1ccc1ccccc21 ?
Out: 600
